The reported measurements were obtained from ChEMBL document CHEMBL4373717.

test system: A549; assay: Cytotoxicity against human A549 cells assessed as reduction in cell viability after 68 hrs by MTT assay; assay type: functional, cell-based; settings: A549, 68 h
Form field: IC50 (one value per entry).

# annotated cases, reported IC50 shown
>>> observed_result("CCOc1cc(Br)cc2c1OCC([N+](=O)[O-])=C2")
"950 to 6430 nM"
>>> observed_result("Cc1c(Cc2ccc(NC(=O)Nc3ccc(F)cc3)nc2)c(=O)oc2cc(O)c(C(C)(C)C)cc12")
"1660 to 9270 nM"

Would you kindly look at the next entry?
Param item = Cc1c(Cc2ccc(NC(=O)Nc3ccc(Br)cc3)nc2)c(=O)oc2cc(O)c(C(C)(C)C)cc12 ; retrieve measured IC50.
1660 to 9270 nM
